System: IGROV1 ovarian
Assay notes: NCI tumour cell line growth inhibition, 48 h
Reported endpoint: TGI

> print(dat)
                                   molecule  measurement
1  CCOC(=O)C(CCCNC(=O)OC(C)(C)C)N(Cc1ccc(OC)cc1OC)C(=O)CC(=O)CP(=O)(OCC)OCC (stereo unspecified)     > 100 µM

I would be grateful if you could provide TGI for each of the following entries.
1. C=CC[N+]1(CC)CCN=C1CCCCCCCCCCCCCCCCC (stereo unspecified)
2. COc1ccc(S(=O)(=O)N2CCNCC2)cc1OC
3. CC(=O)OCC(CC[CH2][Sn]([Cl])([Cl])[c]1ccccc1)OC(C)=O (stereo unspecified)
4. CCCCCCCCCCCCC(O)C(=O)O (stereo unspecified)
5. c1cncc(CSc2ncnc3nc[nH]c23)c1
6. CC(C)N(Cc1ccc(F)cc1)c1ccc(CO)c(Cl)c1

Reply text:
1: 0.475 µM; 2: > 100 µM; 3: 68.8 µM; 4: > 100 µM; 5: > 100 µM; 6: 0.266 µM

Provide TGI values for the following items, in order.
1. C/C(=N\NC(=O)C(N)=O)c1c(O)cc(C)oc1=O
2. C/C(N=NS(=O)(=O)c1ccc(C)cc1)=C1\C=CC=CN1O
3. Nc1nc(-c2ccc(Cl)cc2)nc2c1sc(=S)n2-c1ccccc1
4. O=c1[nH]c(=S)[nH]c(-c2ccccc2)c1Cc1c(O)ccc2ccccc12

Reply text:
["> 100 µM", "> 100 µM", "17 µM", "> 100 µM"]

====

Could you please report measured TGI for the items listed next?
Test system: A549 NSCLC
Assay notes: NCI tumour cell line growth inhibition, 48 h

Check out these entries, answers already filled in.
Compound	Measurement
COc1cc(C(=O)C2CC3(CCC2(O)c2cc(OC)c(OC)c(OC)c2)CC(=O)Nc2ccccc2C3=O)cc(OC)c1OC (centres undefined)	> 100 µM
CCOC(=O)/C=C\C(C#N)(C#N)N=Cc1ccsc1	38.2 µM
O=C(Nc1nc2ncn(CCO)c2c(=O)[nH]1)c1ccccc1	> 100 µM
N#CNC1=NC(N)C(c2nc3ccccc3[nH]2)=C(CCCC(=O)Nc2cccc([N+](=O)[O-])c2)N1 (centres undefined)	> 100 µM

Could I get TGI for every one of these entries?
1. Nc1nc(-c2ccc(Cl)cc2)nc2c1sc(=S)n2-c1ccccc1
2. CCN1C[C@]2(C)CC[C@H](OC)C34C5C[C@@H]6[C@@H](OC)C[C@@](OC)(C5[C@H]6OCc5ccccc5)C(C13)[C@H](OC(C)=O)[C@@H]42 (some centres undefined)
3. C=C1C2CCC3(CCC4C5(C)CCCC4(C=[N+](CCO)C5)C3C2)C1O (centres undefined)

Reply text:
25.4 µM
> 100 µM
> 100 µM

Record TGI per entry; entries follow.
1. CC(=O)N(CC(=O)C(=O)NNc1ccoc1)c1ccc(Cl)cc1
2. CC(C)OC(=O)C1Cc2c([nH]c3ccccc23)C(c2ccccc2)N1 (centres undefined)

Reply text:
1. > 100 µM
2. > 100 µM

====

System: M14 melanoma
Assay notes: NCI tumour cell line growth inhibition, 48 h
Reported endpoint: TGI

Please review the entries below; each comes with its answer.
> print(dat)
                                   compound        target  measurement
1  CC(C)CCC[C@@H](C)[C@H]1CC[C@H]2C3=C[C@H](OS(=O)(=O)O)[C@@]4(O)C[C@@H](O)CC[C@]4(C)[C@@]3(O)CC[C@]12C  M14 melanoma     > 100 µM
2         Nc1n[nH]c(CCCCCCCc2nc(N)n[nH]2)n1  M14 melanoma     > 100 µM
3  N#Cc1cc2c(cc1Cl)Sc1nnc(Nc3cccc4ccccc34)n1S2(=O)=O  M14 melanoma      22.8 µM
4                 NC(=O)c1sc2nc3ccccc3n2c1N  M14 melanoma     > 100 µM

Moving on to the next compound.
Inquiry: Entry CCCCCCCCCCCCC(O)C(=O)O (stereo not given) : reported TGI = ?
Reply text: > 100 µM
